# Test system: HeLa
# test: Cytotoxicity against human HeLa cells assessed as decrease in cell viability at 5 to 50 ug/ml after 24 hrs by MTT assay relative to control
# Type: functional
The source made the active and inactive calls. The calls are words filed in the database; no cut-off is given here.
measurement kind: Activity

Answered examples (5):
1) CCN1CCN(Cc2ccc(F)cc2)P12=NP(N1CCOCC1)(N1CCOCC1)=NP(N1CCOCC1)(N1CCOCC1)=N2 (stereo not drawn) | inactive
2) CN1CCCN(Cc2ccc(F)cc2)P12=NP(N1CCOCC1)(N1CCOCC1)=NP(N1CCOCC1)(N1CCOCC1)=N2 (stereo not drawn) | 58%
3) CN1CCCN(Cc2ccc(F)cc2)P12=NP(N1CCCC1)(N1CCCC1)=NP(N1CCCC1)(N1CCCC1)=N2 (stereo not drawn) | 50%
4) CCN1CCN(Cc2ccc(F)cc2)P12=NP(N1CCC3(CC1)OCCO3)(N1CCC3(CC1)OCCO3)=NP(N1CCC3(CC1)OCCO3)(N1CCC3(CC1)OCCO3)=N2 (stereo not drawn) | inactive
5) CN1CCCN(Cc2ccc(F)cc2)P12=NP(N1CCC3(CC1)OCCO3)(N1CCC3(CC1)OCCO3)=NP(N1CCC3(CC1)OCCO3)(N1CCC3(CC1)OCCO3)=N2 (stereo not drawn) | 49%

Incoming: Name the reported Activity value associated with the molecule CN1CCN(Cc2ccc(F)cc2)P12=NP(N1CCC3(CC1)OCCO3)(N1CCC3(CC1)OCCO3)=NP(N1CCC3(CC1)OCCO3)(N1CCC3(CC1)OCCO3)=N2 (stereo not drawn)
Outgoing: inactive

Incoming: Then CN1CCN(Cc2ccc(F)cc2)P12=NP(N1CCOCC1)(N1CCOCC1)=NP(N1CCOCC1)(N1CCOCC1)=N2 (stereo not drawn) ?
Outgoing: inactive
